Each entry below carries its recorded growth.
# Test system: SF-295 CNS
# measurement_description: NCI-60 one-dose screen, 48 h (100 = growth as untreated, 0 = no growth, -100 = all killed)
# conditions_used: 10 µM unless noted
# Description: Cells are grown in 96 well plates and exposed to the test compound for 48 hours. Compounds are tested at a single concentration, which is 10^-5 M for most compounds. The reported endpoint is percent growth (GI% or GIPRCNT), where numbers from 0 - 100% represent growth inhibition, and numbers from -100% - 0 represent cell death. For example, a value of 40 represents 60% growth inhibition. A value of 0 means no net growth occurred over the course of the experiment. […]
The panel holds about 83,000 compounds, 20% with a hit somewhere; the sample as a whole holds those more often.
Give a bare numeral; the unit % is implied.

Illustrative cases are given below, each with its answer.
- Oc1ccc(F)c(Nc2nc(SCCN3CCOCC3)nc3c2cnn3CC(Cl)c2ccc(Br)cc2)c1 (stereo not given): 2.35
- CC(=O)Nc1ccc(S(=O)(=O)Nc2ccc(-c3ccc4c(c3)NC(=O)/C4=C\c3ccc[nH]3)cc2)cc1: 94.9
- CC(C)C[C@H](NC(=O)CNC(=O)C[C@H]1O[C@@H]2OC3(C)CC[C@H]4[C@H](C)CC[C@@H]([C@H]1C)[C@@]24O3)B(O)O: -61.3
- COc1ccc(/C=C/c2nc3ccccc3n3c(-c4cccc([N+](=O)[O-])c4)nnc23)cc1: 12.4

# ---- query compound ----
Notebook: "S=C(Nc1ccccc1)Nc1ccc(OCc2nc3ccc(Cl)cc3[nH]2)cc1" , growth read as 93.7

----------
# Tested on: COLO 205 colon
# measurement_description: NCI-60 one-dose screen, 48 h (100 = growth as untreated, 0 = no growth, -100 = all killed)
# conditions_used: 10 µM unless noted
About 83,000 compounds went through this panel and 20% of them were active in at least one assay; those are over-represented in the sample as a whole.
Would you mind sorting the entries by growth according to these classes? low end (below 20%), middle (20% to below 90%), high end (90% or more)

Solved entries (count: 7):
* CCOc1ccc(-c2cc(-c3cc(C(C)C)c(O)cc3C)nn2-c2ccc(S(N)(=O)=O)cc2)cc1 | high end
* COC(=O)c1c(C(=O)OC)c2ccc3c4ccccc4ccc3n2c1C(=O)OC | high end
* O=C(Nc1ccc(-c2ccc3c(c2)NC(=O)/C3=C\c2ccc[nH]2)cc1)Nc1ccc(Cl)c(C(F)(F)F)c1 | low end
* O=c1[nH]c2ccccc2cc1CSc1ccccc1Nc1nccc(-c2ccc3c(c2)OCO3)n1 | middle
* COc1ccc(N=Nc2c(N)nn3c(-c4cc5cc(Br)ccc5oc4=O)ccnc23)cc1 | middle
* Cc1ccc(NC(=O)N/N=C/c2c[nH]c3ccccc23)c(C)c1 | low end
* COc1ccc2c(c1)C(=O)N(C)C2C1c2c(cc3c(c2OC)OCO3)CCN1C (centres undefined) | middle

Next:
Q) Any idea which band "C=CC(=O)Nc1ccc(C(=O)/C=C/c2ccc(N(C)C)cc2)c(O)c1" is in?
A) low end

----------
# System: MOLT-4 leukemia
# measurement_description: NCI-60 one-dose screen, 48 h (100 = growth as untreated, 0 = no growth, -100 = all killed)
# conditions_used: 10 µM unless noted
About 83,000 compounds went through this panel and 20% of them were active in at least one assay; those are over-represented in the sample as a whole.
measurement_label: growth (%)
Record the value in %, omitting the unit from your answer.

Examples from the recorded data:
• COc1cc(C2CC(c3ccc(Cl)cc3)=Nc3c(N)nc(N)nc3N2)ccc1Oc1nc(Nc2ccc(F)cc2)nc(N(C)C)n1 (centres undefined) = -8.16
• COc1cc(CNC(=O)C[C@H](C)CCC=C(C)C)ccc1OCc1cn(-c2ccc(Br)cc2)nn1 = 70
• Cc1ccc(C(C(=O)NC2CCCCC2)N(Cc2ccccc2Cl)C(=O)c2ccc(CN3CCOCC3)o2)o1 (centres undefined) = 70.3
• CN(C)c1nc(NCCNS(=O)(=O)c2ccc(C3=Nc4c(N)nc(N)nc4NC(c4ccc(C(F)(F)F)cc4)C3)cc2)nc(N2CCOCC2)n1 (centres undefined) = -5.12

GET /values?item= "Cc1nn(-c2ccccc2)c2nc(C)n(C(=O)N/N=C/c3ccccc3)c(=O)c12" &system= MOLT-4 leukemia returns growth: 102

Measured on MOLT-4 leukemia, "COC(=O)c1cc(C(=O)C(F)(F)F)n2c3ccccc3c3ccccc3c12" has a documented growth of 97.4

Summary: "O=C(NNC(=O)c1ccc(OCc2nc3ccc(Cl)cc3[nH]2)cc1)Nc1ccc(Cl)c(C(F)(F)F)c1" , MOLT-4 leukemia, growth = 60.6

Given the compound CCc1ccc(SC2c3cc(OC)ccc3Oc3nc(N)c(C#N)c(N)c32)cc1 (centres undefined) and test system MOLT-4 leukemia, the measured growth is -50.1

Bench note, MOLT-4 leukemia: "O=C(NNC(=S)NC(=O)c1ccccc1)c1ccc(OCc2nc3ccc(Cl)cc3[nH]2)cc1" , growth reads 2.46

----------
# System: SR leukemia
# measurement_description: NCI-60 one-dose screen, 48 h (100 = growth as untreated, 0 = no growth, -100 = all killed)
# conditions_used: 10 µM unless noted
The panel holds about 83,000 compounds, 20% with a hit somewhere; the sample as a whole holds those more often.
Lab note: anything with growth at or over 30% counts as YES; the rest go in NO.

Would you please look over these solved cases?
* CCCSc1nnc(-c2sc3nc4ccccc4n3c2C)o1 | YES
* COc1ccc(N=Nc2c(N)nn3c(-c4cc5ccccc5oc4=O)ccnc23)cc1 | NO
* COc1ccc2c(c1)C(Sc1ccc(Br)cc1)c1c(nc(N)c(C#N)c1N)O2 (stereo not given) | YES
* COc1ccc(/C=C/c2nc3ccccc3c(=O)n2CC(=O)Nc2ccccc2)cc1 | YES
* COc1ccccc1/C=C/c1cccc(NC(=S)NCCCCN(C)C)c1 | NO
* COc1ccc(/C=C/c2nc3ccccc3n3c(-c4cccc([N+](=O)[O-])c4)nnc23)cc1 | NO
* Cc1ccccc1Nc1nnc(-c2c[nH]c3ccccc23)o1 | NO
* Cc1nc2sccn2c1-c1nnc(SCc2ccccc2)o1 | YES
* CCN1C(=O)N(CC)C2NNC(Sc3c(C(=O)O)c4ccccc4n(CCC(C)C)c3=O)=NC21 (stereo not given) | NO
* Cc1ccc(C(=O)C[n+]2cccc3c4ccccc4ccc32)cc1 | NO

Q) Kindly determine if growth recorded for "Clc1ccc(Nc2nnc(-c3c[nH]c4ccccc34)o2)cc1" is above or exactly 30%.
A) YES

Q) Evaluate "COc1ccc2c(c1)c(-c1cc(N)n3nc(-c4c[nH]c5ccccc45)cc3n1)cn2C" : growth at minimum 30%?
A) NO

----------
Documented growth across a set of compounds
# Tested on: SK-MEL-28 melanoma
# measurement_description: NCI-60 one-dose screen, 48 h (100 = growth as untreated, 0 = no growth, -100 = all killed)
# conditions_used: 10 µM
Compounds without any hit were thinned out: in the full panel of roughly 83,000, 20% have a hit. The source made the active and inactive calls. The calls were made as follows: active = growth percent below 10; inactive = the rest.

Solved cases below.
* CC/C(=C(\c1ccc(O)cc1)c1ccc(OCCN(C)C(=O)CCOCCNC(=O)c2ccc3c(c2)CN([C@@H]2CCC(=O)NC2=O)C3=O)cc1)c1ccccc1 | 102% (inactive)
* CC/C(=C(/c1ccc(O)cc1)c1ccc(OCCN(C)C(=O)CCOCCNC(=O)Cc2ccc3c(c2)CN([C@@H]2CCC(=O)NC2=O)C3=O)cc1)c1ccccc1 | 80.2% (inactive)
* CC/C(=C(\c1ccc(O)cc1)c1ccc(OCCNC)cc1)c1ccccc1 | 93.3% (inactive)
* CC/C(=C(/c1ccc(O)cc1)c1ccc(OCCN(C)C(=O)COCCOCCNC(=O)Cc2ccc3c(c2)CN([C@@H]2CCC(=O)NC2=O)C3=O)cc1)c1ccccc1 | 74.3% (inactive)

Please examine the following record next.
The reported growth of the compound "CC/C(=C(\c1ccc(O)cc1)c1ccc(OCCN(C)C(=O)COCCNC(=O)Cc2ccc3c(c2)CN([C@@H]2CCC(=O)NC2=O)C3=O)cc1)c1ccccc1" was 57% (inactive)

----------
Reported growth values follow for various compounds
# Test system: HCT-15 colon
# measurement_description: NCI-60 one-dose screen, 48 h (100 = growth as untreated, 0 = no growth, -100 = all killed)
# conditions_used: 10 µM unless noted
The panel holds about 83,000 compounds, 20% with a hit somewhere; the sample as a whole holds those more often.
Write it as a number; the unit % goes unstated.

Answered cases to consult:
• CCCCCCCCCCCCCCCCCC(=O)Nc1ccc(OC)cc1 = 99.1
• O=C(OCCOCCO)N(c1cccc(Br)c1)c1nc(SCCN2CCOCC2)nc2c1cnn2CC(Cl)c1ccc(Br)cc1 (centres undefined) = -38.8
• Clc1ccc2c(NCCNC34CC5CC(CC(C5)C3)C4)ccnc2c1 = -82
• CN(C)c1nc(NCCNS(=O)(=O)c2ccc(C(=O)/C=C/c3ccc(C(F)(F)F)cc3)cc2)nc(N2CCOCC2)n1 = -78.2
• COc1ccc2[nH]c(O)c(N=NC(=O)c3ccc4nc(-c5ccc(Cl)cc5)[nH]c4c3)c2c1 = 105
• COc1ccc(N=Nc2c(N)nn3c(N)c(C#N)c(-c4ccccc4)nc23)cc1 = 70.8

The reported growth value, HCT-15 colon, for "Cn1cc(-c2cc(N)n3nc(-c4c[nH]c5ccccc45)cc3n2)c2ccccc21" reads -68.5

Measured growth for this entry "COc1ccc2[nH]cc(-c3cc4nc(-c5cn(C)c6ncc(Br)cc56)cc(N)n4n3)c2c1" on HCT-15 colon: -70.5

Known value: HCT-15 colon growth of the compound "COc1cc(NC(=O)CSc2nnc(-c3ccc(-c4nc5ccc(Cl)cc5[nH]4)cc3)o2)cc(OC)c1OC" equals 25.6

HCT-15 colon assay, compound "O=C(NC(=S)N1CCN(c2ncnc3c2cnn3-c2ccccc2)CC1)c1ccc(Br)cc1" , recorded growth = 58.3
